# target-or-test-system: T1, human FOLR1 protein, His Tag (ACRO-FO1-H52H1) (human, UniProt P15328 25-233)
# T1 construct: not shown: His tag
# T1 sequence (P15328 25-233 limits assumed): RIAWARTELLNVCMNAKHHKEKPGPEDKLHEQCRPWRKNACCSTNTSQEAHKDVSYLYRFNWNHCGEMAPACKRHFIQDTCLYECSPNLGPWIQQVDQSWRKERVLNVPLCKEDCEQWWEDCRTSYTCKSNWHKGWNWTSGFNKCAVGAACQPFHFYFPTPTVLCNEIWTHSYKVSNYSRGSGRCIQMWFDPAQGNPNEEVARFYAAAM
# assay-protocol: ELISA OD450 on human FOLR1 divided by OD450 of IgG level ELISA

{"columns": ["binder", "Target binding/IgG level"],
 "data": [
  ["anti-FOLR1 antibody F123 (antibody, V domains shown, also called clone F123) VH: EVQLLESGGGVVQPERSLRLSCAASGFTFSSYGMHWVRQAPGKGLEWVAVISYDGSNKYYADSVKGRFTISRANSKNTLYLQMNSLRAEDTAVYYCARPRAYYGAYGSSFDYWGQGTQVTVSS VL: EIVMTQSPSSVSASVGDRVAITCRASQGISSWLAWYQQKPGKAPKLLIYAASSLQSGVPSRFSGSGSGTDFTLTISSLQPEDFATYYCQQSYSTPLTFGGGTKVDIK", "1.06 ratio of OD450"],
  ["anti-FOLR1 antibody F8 (antibody, V domains shown, also called clone F8) VH: EVQLLESGGGVVQHGRSLRLSCAASGFTFSSYGMHWVRQAPGKGLEWVAVISYDGSNKYYADSVKGRFTISRDNSKNTLYLQMNSLRAEDTAVYYCARPRAYYGAYGSSFDYWGQGTQVTVSS VL: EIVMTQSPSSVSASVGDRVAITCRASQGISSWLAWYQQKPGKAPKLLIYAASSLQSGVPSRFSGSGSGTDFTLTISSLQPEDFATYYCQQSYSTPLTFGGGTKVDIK", "1.12 ratio of OD450"],
  ["anti-FOLR1 antibody F48 (antibody, V domains shown, also called clone F48) VH: EVQLLESGGGVVQPGRSLRLSCAASGFTFSSYGMHWVRQAPGKGLEWVAVISYDGSNKYYADSVKGRFTISRDNSKNTLYLHMNSLRAEDTAVYYCARPRAYYGAYGSSFDYWGQGTQVTVSS VL: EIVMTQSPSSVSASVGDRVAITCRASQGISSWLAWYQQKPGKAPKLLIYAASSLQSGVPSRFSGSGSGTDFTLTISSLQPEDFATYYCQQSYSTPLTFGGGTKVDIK", "1.12 ratio of OD450"],
  ["anti-FOLR1 antibody F26 (antibody, V domains shown, also called clone F26) VH: EVQLLESGGGVVQRGRSLRLSCAASGFTFSSYGMHWVRQAPGKGLEWVAVISYDGSNKYYADSVKGRFTISRDNSKNTLYLPMNSLRAEDTAVYYCARPRAYYGAYGSSFDYWGQGTQVTVSS VL: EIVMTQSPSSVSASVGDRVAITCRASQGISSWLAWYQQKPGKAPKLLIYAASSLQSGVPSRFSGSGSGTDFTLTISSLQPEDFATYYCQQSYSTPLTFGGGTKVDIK", "1.21 ratio of OD450"],
  ["anti-FOLR1 antibody F40 (antibody, V domains shown, also called clone F40) VH: EVQLLESGGGVVQPGRSLRLSCAASGFTFSSYAMHWVRQAPGKGLEWVAVISYDGSNKYYADSVKGRFIISRDNSKNTVYLQMNSLRAEDTAVYYCARPTYVFTYTGSSFDYWGQGTQVTVSS VL: DIQVTQSPSSLSASLGDTVSITCRASRGLTDSVAWYQQKPGQAPKLLIYAASTLQSGVPSRFGGSGSGSYFTLTITSLQPEDVATYYCQNYKSAPWTFGQGTKVEIK", "1.02 ratio of OD450"],
  ["anti-FOLR1 antibody F112 (antibody, V domains shown, also called clone F112) VH: EVQLLESGGGVVQPGRSLRLSCAASGFTFSSYGMHWVRQAPGKGLEWVAVISYDGSNKYYADSVKGRFTISRHNSKNTLYLQMNSLRAEDTAVYYCARPRAYYGAYGSSFDYWGQGTQVTVSS VL: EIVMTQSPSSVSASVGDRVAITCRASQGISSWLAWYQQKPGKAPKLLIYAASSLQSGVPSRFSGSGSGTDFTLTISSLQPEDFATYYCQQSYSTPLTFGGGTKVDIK", "1.12 ratio of OD450"],
  ["anti-FOLR1 antibody F138 (antibody, V domains shown, also called clone F138) VH: EVQLLESGGGVVQPGRSLRLSCAASGFTFSSYGMHWVRQAPGKGLEWVAVISYDGSNKYYADSVKGRFTISTHNSKNTLYLQMNSLRAEDTAVYYCARPRAYYGAYGSSFDYWGQGTQVTVSS VL: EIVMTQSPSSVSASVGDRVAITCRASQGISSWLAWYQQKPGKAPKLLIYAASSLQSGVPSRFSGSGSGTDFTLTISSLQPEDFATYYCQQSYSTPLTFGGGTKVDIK", "1.2 ratio of OD450"]
]}
